assay-method-text: n-octanol/water partition coefficient, shake-flask method
Type: physicochemical
run-parameters: n-octanol / buffered saline pH 7.4, shake-flask
# reported Log Pow; entries follow
Write the value as a bare number.

Cc1ccc(-c2ccccn2)[c]([Au+][S]C(=S)N(C)C)c1.F[P-](F)(F)(F)(F)F [Complex C1, [Au(tpy)(dmdtc)] PF6] : 0.61
Cc1ccc2[c](c1)[Au-]1([S]C(N(Cc3ccccc3)Cc3ccccc3)=[S+]1)[n+]1ccccc1-2.F[P-](F)(F)(F)(F)F (centres unmarked) [Complex C5, [Au(tpy)(dbdtc)]PF6] : 0.89
CN(C)C(=S)[S][Au+][c]1ccccc1-c1ccccn1.F[P-](F)(F)(F)(F)F [Complex C2, [Au(ppy)(dmdtc)]PF6] : 1.11
CCN(CC)C(=S)[S][Au+][c]1cc(C)ccc1-c1ccccn1.F[P-](F)(F)(F)(F)F [Complex C3, [Au(tpy)(dedtc)]PF6] : 1.17

// switching to the query molecule
Ask | What Log Pow value was documented for this molecule, F[P-](F)(F)(F)(F)F.S=C([S][Au+][c]1ccccc1-c1ccccn1)N(Cc1ccccc1)Cc1ccccc1 [Complex C6, [Au(ppy)(dbdtc)]PF6] ?
Reply | 1.00

* * *

assayed-target: BSA (Bos taurus, UniProt P02769)
Construct: purchased Sigma Aldrich
assay-method-text: BSA interaction, fluorescence quenching (Stern–Volmer)
Assay type: binding, bovine
run-parameters: modified Stern–Volmer equation
readout-kind: number of binding sites n
Number only, please.

Worked cases, number of binding sites n given:
Cc1ccc(-c2ccccn2)[c]([Au+][S]C(=S)N(C)C)c1.F[P-](F)(F)(F)(F)F [Complex C1, [Au(tpy)(dmdtc)] PF6] : 1.72
CN(C)C(=S)[S][Au+][c]1ccccc1-c1ccccn1.F[P-](F)(F)(F)(F)F [Complex C2, [Au(ppy)(dmdtc)]PF6] : 1.42
F[P-](F)(F)(F)(F)F.S=C([S][Au+][c]1ccccc1-c1ccccn1)N(Cc1ccccc1)Cc1ccccc1 [Complex C6, [Au(ppy)(dbdtc)]PF6] : 1.43
CCN(CC)C(=S)[S][Au+][c]1cc(C)ccc1-c1ccccn1.F[P-](F)(F)(F)(F)F [Complex C3, [Au(tpy)(dedtc)]PF6] : 0.95

Ask | I have this molecule here, Cc1ccc2[c](c1)[Au-]1([S]C(N(Cc3ccccc3)Cc3ccccc3)=[S+]1)[n+]1ccccc1-2.F[P-](F)(F)(F)(F)F (centres unmarked) [Complex C5, [Au(tpy)(dbdtc)]PF6] , and I need its recorded number of binding sites n.
Reply | 1.57

* * *

In this section we review reported Stern–Volmer quenching constant KSV values for a set of molecules.
assayed-target: BSA (Bos taurus)
Construct: purchased Sigma Aldrich
assay-method-text: BSA interaction, fluorescence quenching (Stern–Volmer)
Type: binding, bovine
run-parameters: BSA 50 μM in PBS pH 7.4, excitation 295 nm
Give the number; M⁻¹ is assumed, so skip it.

Cc1ccc2[c](c1)[Au-]1([S]C(N(Cc3ccccc3)Cc3ccccc3)=[S+]1)[n+]1ccccc1-2.F[P-](F)(F)(F)(F)F (centres unmarked) [Complex C5, [Au(tpy)(dbdtc)]PF6] : 44300

Ask | Requested read-out: Stern–Volmer quenching constant KSV. Entry: F[P-](F)(F)(F)(F)F.S=C([S][Au+][c]1ccccc1-c1ccccn1)N(Cc1ccccc1)Cc1ccccc1 [Complex C6, [Au(ppy)(dbdtc)]PF6]
Reply | 64400

Ask | Param item = Cc1ccc(-c2ccccn2)[c]([Au+][S]C(=S)N(C)C)c1.F[P-](F)(F)(F)(F)F [Complex C1, [Au(tpy)(dmdtc)] PF6] ; retrieve measured Stern–Volmer quenching constant KSV.
Reply | 13000

Ask | Requested field: Stern–Volmer quenching constant KSV. Item: CN(C)C(=S)[S][Au+][c]1ccccc1-c1ccccn1.F[P-](F)(F)(F)(F)F [Complex C2, [Au(ppy)(dmdtc)]PF6]
Reply | 13700

Ask | So what's the measured Stern–Volmer quenching constant KSV for this one? CCN(CC)C(=S)[S][Au+][c]1cc(C)ccc1-c1ccccn1.F[P-](F)(F)(F)(F)F [Complex C3, [Au(tpy)(dedtc)]PF6]
Reply | 19000
